The reported measurements were obtained from the supplement of paper PMC7125110.

B1: glmS ribozyme (parent)
chain: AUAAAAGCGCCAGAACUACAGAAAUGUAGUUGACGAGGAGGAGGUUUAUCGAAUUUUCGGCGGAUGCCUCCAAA

# Variants of: B1
# TEST: self-cleavage kobs at 40 uM GlcN6P; higher = faster cleavage; RNA array
# CONDITION PARAMETERS: with glucosamine-6-phosphate
Fewer inactive variants are shown than the library holds.
REPORTED ENDPOINT: self-cleavage kobs at 40 uM GlcN6P (s⁻¹)
Kindly answer with a numeric value in s⁻¹, unit omitted.

Take a look at these entries with their results.
{"RESIDUE SEQUENCE": "AUAAAAGCGCCAGAUCUACAGAAAUGUAGUUGACGAGGAGGAGGUUUAUCGAAUUUUCGGCGGAUGCUUCCAAA", "self-cleavage kobs at 40 uM GlcN6P (s⁻¹)": "1.92e-05"}
{"RESIDUE SEQUENCE": "AUAAAAGCGCCUGAACUACAGAAAUGUAGUUGACGAGGAGGAGGUUUAUCGAAUUUUCGGCGGAUGCCUACAAA", "self-cleavage kobs at 40 uM GlcN6P (s⁻¹)": "8.79e-05"}
{"RESIDUE SEQUENCE": "AUAAAAGCGCCAGCACUACAGAAAUGUAGUUGACGAGGAGGAGGUUUAUCGAAUAUUCGGCGGAUGCCUCCAAA", "self-cleavage kobs at 40 uM GlcN6P (s⁻¹)": 0.000144}

So what does the record say about self-cleavage kobs at 40 uM GlcN6P for AUAAAAGCGCCAGAACUACAGAAAUUUAGUUGACGAGGAGGAGGUUUAUGGCAUUGUCGGCGGAUCUCUCUAAA ?
0.000243

Proceed to AUAAAAGCGCCAGAACUACAGAAAUGUAUUAGACGAGGAGGAGGUUUAUCGAAUUUUCGGCGGAUGCCUCCAAA
9.58e-05
